Target: Rho-associated protein kinase 1 (Homo sapiens) (UniProt Q13464);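 also: values are mean percent inhibition of ROCK1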
Sequence (Q13464 2-1354 limits assumed): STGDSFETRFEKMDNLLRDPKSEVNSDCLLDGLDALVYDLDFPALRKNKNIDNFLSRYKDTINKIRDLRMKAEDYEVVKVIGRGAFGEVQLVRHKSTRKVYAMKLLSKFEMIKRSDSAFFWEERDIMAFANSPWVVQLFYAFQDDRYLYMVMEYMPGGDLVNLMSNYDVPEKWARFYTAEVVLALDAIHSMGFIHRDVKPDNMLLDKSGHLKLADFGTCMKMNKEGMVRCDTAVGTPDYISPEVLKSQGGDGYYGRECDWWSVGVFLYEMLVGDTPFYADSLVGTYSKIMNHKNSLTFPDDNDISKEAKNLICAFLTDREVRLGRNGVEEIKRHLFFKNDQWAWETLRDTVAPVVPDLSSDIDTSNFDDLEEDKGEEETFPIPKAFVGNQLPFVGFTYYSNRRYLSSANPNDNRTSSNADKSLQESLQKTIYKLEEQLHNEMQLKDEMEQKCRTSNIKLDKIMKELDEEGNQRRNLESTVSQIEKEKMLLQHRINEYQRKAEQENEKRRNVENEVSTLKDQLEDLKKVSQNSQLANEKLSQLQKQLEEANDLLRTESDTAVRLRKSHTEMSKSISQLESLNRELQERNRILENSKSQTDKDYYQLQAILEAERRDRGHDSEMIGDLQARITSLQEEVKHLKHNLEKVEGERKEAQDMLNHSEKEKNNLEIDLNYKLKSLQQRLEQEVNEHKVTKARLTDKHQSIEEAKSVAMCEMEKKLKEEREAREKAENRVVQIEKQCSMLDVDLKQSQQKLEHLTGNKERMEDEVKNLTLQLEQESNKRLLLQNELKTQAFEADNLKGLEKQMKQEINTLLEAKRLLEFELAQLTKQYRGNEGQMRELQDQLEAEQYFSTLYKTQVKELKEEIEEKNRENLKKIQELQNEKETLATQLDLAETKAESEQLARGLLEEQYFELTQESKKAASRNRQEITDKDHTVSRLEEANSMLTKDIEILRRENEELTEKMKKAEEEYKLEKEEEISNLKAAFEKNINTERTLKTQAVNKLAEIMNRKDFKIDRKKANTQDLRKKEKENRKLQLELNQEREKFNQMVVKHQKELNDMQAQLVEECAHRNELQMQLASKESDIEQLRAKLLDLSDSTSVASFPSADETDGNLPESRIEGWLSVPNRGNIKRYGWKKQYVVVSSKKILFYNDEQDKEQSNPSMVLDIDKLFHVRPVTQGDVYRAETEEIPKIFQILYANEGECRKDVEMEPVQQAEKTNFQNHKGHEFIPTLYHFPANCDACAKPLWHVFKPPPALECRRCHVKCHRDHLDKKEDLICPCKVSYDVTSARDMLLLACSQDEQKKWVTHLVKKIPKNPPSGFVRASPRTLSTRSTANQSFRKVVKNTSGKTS
Details: at 0.1 µM
Reported inhibition values follow for various compounds

compound | inhibition / %
CCCN1CCC(c2ccc(Nc3nc(Nc4cc(F)ccc4C(N)=O)c4cc[nH]c4n3)c(OC)c2)CC1 | 17.2
CC1=C(C(=O)Nc2cc(Cl)c3[nH]ncc3c2)C(c2ccc(C(F)(F)F)cc2)CC(=O)N1 (stereo not given) | 70.7
Nc1nc(-c2ccc(F)cc2)c(-c2ccc3ncccc3n2)s1 | 0.86
COc1cc2c(cc1Nc1nc(Nc3ccsc3C(N)=O)c3cc[nH]c3n1)N(C(=O)CN(C)C)CCC2(C)C | 25
CS(=O)(=O)CCNCc1ccc(-c2ccc3ncnc(Nc4ccc(OCc5ccccc5)c(C(F)(F)F)c4)c3c2)o1 | 10.3
COc1cc2ncn(-c3cc(OCc4ccccc4C(F)(F)F)c(C(=O)N(C)C)s3)c2cc1OC | -0.15
COC(=O)Nc1nc2ccc(S(=O)(=O)c3ccc(NC(=O)Nc4cc(C(F)(F)F)ccc4F)cc3)cc2[nH]1 | 0.44
N#Cc1c(NC(=O)CN2CCOCC2)sc2c1CCCC2 | 0.84
Fc1ccc(-c2nn3ccccc3c2-c2ccncc2)cc1 | 5.05
CCn1c(-c2nonc2N)nc2cnc(Oc3cccc(NC(=O)c4ccc(N(C)C)cc4)c3)cc21 | 85.5
CN(C)CCOc1ccc(-c2nc(-c3ccncc3)c(-c3ccc4c(c3)CC/C4=N\O)[nH]2)cc1 | 0.51
CCN(CC)S(=O)(=O)c1ccc(OC)c(Nc2ncc(-c3ccccc3)o2)c1 | 0.86
CCOc1ccc2c(-c3ccnc(Nc4cccc(C(F)(F)F)c4)n3)cnn2n1 | -1.15
COc1cc(N2CCN(C(C)C)CC2)ccc1Nc1nc(Nc2ccc(F)cc2C(N)=O)c2cc[nH]c2n1 | 1.79
Nc1ncc(-c2cccc(S(N)(=O)=O)c2)c2scc(-c3ccc(F)c(Cl)c3)c12 | 1.03
CN1CCC(n2cnc(-c3ccc(F)cc3)c2-c2ccnc(N)n2)CC1 | -0.08
c1cc(-c2cnn3nc(N4CCOCC4)ccc23)nc(NC2CC2)n1 | 1.67
N#Cc1c(NC(=O)c2ccc(F)cc2)sc2c1CCCC2 | 0.43
NS(=O)(=O)c1ccc(N/N=C2\C(=O)Nc3ccc4ncccc4c32)cc1 | 7.13
Fc1cccc(COc2ccc(Nc3ncnc4sc(-c5ccco5)cc34)cc2Cl)c1 | 2.54
c1ccc(-c2nc3n(c2-c2ccc4c(c2)OCO4)CCC3)nc1 | 3.64
COc1cc(Nc2nccc(Nc3ccc4c(C)n[nH]c4c3)n2)cc(OC)c1OC | 2.06
NS(=O)(=O)c1ccc(Nc2ncc(-c3ccccc3)o2)cc1 | 0.63
COc1cccc(-c2c[nH]c3c(N/N=C/c4ccncc4)ncnc23)c1 | 1.94
CCn1cc(-c2ccnc3[nH]ccc23)c(-c2cccc(NC(=O)Nc3ccc(OCc4ccccc4)cc3)c2)n1 | -1.8
Fc1ccc(-c2nn3ncccc3c2-c2ccnc(Nc3ccc4c(c3)OCCO4)n2)cc1 | -0.74
COc1cccc(-n2ncc3c(N/N=C/c4ccc(F)cc4)ncnc32)c1 | 1
COc1cc(/C=N/Nc2ncnc3[nH]ncc23)ccc1O | 1.5
O=C(Nc1n[nH]c2cc(-c3ccc(F)cc3)ccc12)C1CC1 | 6.12
CCn1c(-c2nonc2N)nc2c(C#CC(C)(C)O)ncc(OC3CCNCC3)c21 | 3.14
O=S(=O)(CCNCc1ccc(-c2ccc3ncnc(Nc4ccc(OCc5cccc(F)c5)c(Cl)c4)c3c2)o1)c1ccccc1 | 2.37
CNC(=O)c1cc(-c2ccc(F)cc2)cc(-c2ccc(S(=O)(=O)N3CCCC3)cc2)c1N | 1.6
FC(F)(F)c1cccc(-c2nn3ncccc3c2-c2ccnc(Nc3ccc4c(c3)OCCO4)n2)c1 | 0
Fc1ccc(-c2cc(-c3c[nH]nc3-c3ccccn3)ccn2)cc1 | -0.11
O=C(O[C@H]1CN[C@H](C#Cc2cc3ncnc(Nc4ccc(Cc5ccccc5)cc4)c3s2)C1)N1CCOCC1 | 2.02
COc1ccc2[nH]c3c4[nH]c5ccc(OC)cc5c4c4c(c3c2c1)C(=O)NC4=O | 1.15
CNC(=O)c1cncc(/C=C/c2ccccc2Cl)c1 | 0.5
COc1ccc(-c2nn3ncccc3c2-c2ccnc(Nc3ccc4c(c3)OCCO4)n2)cc1 | 0.43
COc1ccc(-c2cc(-c3c[nH]nc3-c3ccccn3)ccn2)cc1 | 1.04
COC(=O)c1sc(-n2cnc3cc(OC)c(OC)cc32)cc1OCc1ccccc1C(F)(F)F | 0.1

* * *

Biological target: Cyclin-dependent kinase 1 (Homo sapiens);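 also: mean percent inhibition of the CDK1/cyclin B complex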
Settings: at 1 µM
As shown below, each of these compounds has a reported inhibition value.
property name: inhibition

chemical smiles | observed result
COC(=O)Nc1nc2ccc(S(=O)(=O)c3ccc(NC(=O)Nc4cc(C(F)(F)F)ccc4F)cc3)cc2[nH]1 | 2.29%
Nc1ncc(-c2cccc(S(N)(=O)=O)c2)c2scc(-c3ccc(F)c(Cl)c3)c12 | 2.57%
O=C(O[C@H]1CN[C@H](C#Cc2cc3ncnc(Nc4ccc(Cc5ccccc5)cc4)c3s2)C1)N1CCOCC1 | 1.96%

* * *

Measured inhibition of individual entries
Target: Protein kinase C alpha type (Homo sapiens) (UniProt P17252)
Details: at 1 µM
property name: inhibition (%)

chemical smiles | property name | observed result
CNC(=O)c1cc(-c2ccc(F)cc2)cc(-c2ccc(S(=O)(=O)N3CCCC3)cc2)c1N | inhibition | 1.02
CCNC(=O)O[C@H]1CN[C@H](C#Cc2cc3ncnc(Nc4ccc(OCc5cccc(F)c5)c(Cl)c4)c3s2)C1 | inhibition | 1.1
NS(=O)(=O)c1ccc(N/N=C2\C(=O)Nc3ccc4ncccc4c32)cc1 | inhibition | 3.78
COc1cccc(-n2ncc3c(N/N=C/c4ccc(F)cc4)ncnc32)c1 | inhibition | 1.43
O=C(O[C@H]1CN[C@H](C#Cc2cc3ncnc(Nc4ccc(Cc5ccccc5)cc4)c3s2)C1)N1CCOCC1 | inhibition | 4.81
FC(F)(F)c1cccc(-c2nn3ncccc3c2-c2ccnc(Nc3ccc4c(c3)OCCO4)n2)c1 | inhibition | 1.32

* * *

Target: Cyclin-dependent kinase 6 (Homo sapiens);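 also: mean percent inhibition of CDK6 complexed with cyclin D3, from the GSK PKIS kinase inhibitor screen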
Conditions: at 0.1 µM
property name: inhibition (%)

molecule | observed result
CC1=C(C(=O)Nc2cc(Cl)c3[nH]ncc3c2)C(c2ccc(C(F)(F)F)cc2)CC(=O)N1 (stereo unspecified) | -4.7
NS(=O)(=O)c1ccc(N/N=C2\C(=O)Nc3ccc4ncccc4c32)cc1 | 53.5
CCc1nn2ncccc2c1-c1ccnc(NC2CC2)n1 | 0.16
Nc1nc(-c2cccc(Cl)c2)c(-c2ccc3ncccc3n2)s1 | -7.38
Cc1cccc(Nc2ncc(-c3ccccc3)o2)c1 | -1.21
COc1cc(N2CCN(C(C)C)CC2)ccc1Nc1nc(Nc2ccc(F)cc2C(N)=O)c2cc[nH]c2n1 | -2.83

* * *

Target: Ribosomal protein S6 kinase alpha-5 (Homo sapiens) (UniProt O75582);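 also: mean inhibition of MSK1, from screening of the GSK PKIS inhibitor set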
Sequence (O75582 whole entry, looked up): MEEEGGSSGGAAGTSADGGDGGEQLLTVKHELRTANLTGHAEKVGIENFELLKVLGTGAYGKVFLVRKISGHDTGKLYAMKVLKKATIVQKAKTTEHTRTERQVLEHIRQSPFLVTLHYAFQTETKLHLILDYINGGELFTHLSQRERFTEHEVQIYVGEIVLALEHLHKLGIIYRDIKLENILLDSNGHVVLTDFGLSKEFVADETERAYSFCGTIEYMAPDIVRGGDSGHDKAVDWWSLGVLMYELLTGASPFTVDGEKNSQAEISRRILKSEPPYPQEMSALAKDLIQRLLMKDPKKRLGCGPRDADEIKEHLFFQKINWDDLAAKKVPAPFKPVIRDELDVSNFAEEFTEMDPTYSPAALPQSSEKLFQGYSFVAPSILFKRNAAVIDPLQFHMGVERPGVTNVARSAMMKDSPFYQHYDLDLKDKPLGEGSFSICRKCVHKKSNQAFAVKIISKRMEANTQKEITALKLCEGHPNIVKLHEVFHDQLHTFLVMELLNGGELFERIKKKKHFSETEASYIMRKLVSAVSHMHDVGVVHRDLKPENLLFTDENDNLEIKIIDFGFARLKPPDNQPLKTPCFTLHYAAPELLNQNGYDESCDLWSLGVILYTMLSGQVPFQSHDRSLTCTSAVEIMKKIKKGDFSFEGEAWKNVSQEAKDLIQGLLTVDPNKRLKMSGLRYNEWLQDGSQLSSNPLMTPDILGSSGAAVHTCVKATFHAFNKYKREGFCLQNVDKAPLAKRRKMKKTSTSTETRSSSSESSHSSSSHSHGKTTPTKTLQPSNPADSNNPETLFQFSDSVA
Settings: at 1 µM
If the reported inhibition equals or exceeds 3%, assign label 1. If not, assign label 0.

chemical smiles | assigned category
COc1ccc(-c2oc3ncnc(N)c3c2-c2ccc(NC(=O)Nc3cc(C(F)(F)F)ccc3F)cc2)cc1 | label 1
CCc1nn2ncccc2c1-c1ccnc(NC2CC2)n1 | label 0
Fc1ccc(-c2cc(-c3c[nH]nc3-c3ccccn3)ccn2)cc1 | label 0
CCN(CC)S(=O)(=O)c1ccc(OC)c(Nc2ncc(-c3ccccc3)o2)c1 | label 1
COC(=O)c1sc(-n2cnc3cc(OC)c(OC)cc32)cc1OCc1ccccc1C(F)(F)F | label 0
CN(C)CCOc1ccc(-c2nc(-c3ccncc3)c(-c3ccc4c(c3)CC/C4=N\O)[nH]2)cc1 | label 1
CS(=O)(=O)CCNCc1ccc(-c2ccc3ncnc(Nc4ccc(OCc5ccccc5)c(C(F)(F)F)c4)c3c2)o1 | label 1
Nc1nc(-c2ccc(F)cc2)c(-c2ccc3ncccc3n2)s1 | label 1
Cc1ccc(O)cc1Nc1ccnc2cc(-c3ccccn3)ccc12 | label 1

* * *

Target: Protein kinase C alpha type (Homo sapiens) (UniProt P17252);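 also: reported value is the mean inhibition, measured within the GSK PKIS screening panel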
Details: at 1 µM
inhibition values for the compounds below.

compound | units of measure | inhibition
COc1ccc2c(-c3ccnc(Nc4cccc(OC(F)(F)F)c4)n3)cnn2n1 | % | 12.7
c1ccc(-c2nc3n(c2-c2ccc4c(c2)OCO4)CCC3)nc1 | % | 1.8
CNC(=O)c1cncc(/C=C/c2ccccc2Cl)c1 | % | -0.07
CCCN(CCS(C)(=O)=O)Cc1ccc(-c2ccc3ncnc(Nc4ccc(OCc5cccc(F)c5)c(Cl)c4)c3c2)o1 | % | 1.04
CCn1c(-c2nonc2N)nc2c(C#CC(C)(C)O)ncc(OC3CCNCC3)c21 | % | 30.4
COc1ccc(-c2oc3ncnc(N)c3c2-c2ccc(NC(=O)Nc3cc(C(F)(F)F)ccc3F)cc2)cc1 | % | 1.62
[O-][S+]1CCN(Cc2ccc(-c3ccc4ncnc(Nc5ccc(OCc6cccc(F)c6)c(Cl)c5)c4c3)o2)CC1 | % | 1.29
CCOc1ccc2c(-c3ccnc(Nc4cccc(C(F)(F)F)c4)n3)cnn2n1 | % | 0.74
CC1=C(C(=O)Nc2cc(Cl)c3[nH]ncc3c2)C(c2ccc(C(F)(F)F)cc2)CC(=O)N1 (stereo not given) | % | 1.52
c1ccc(COc2ccc(Nc3ncnc4ccc(-c5ccco5)cc34)cc2)cc1 | % | 0.05
